Numbers sourced from patent US20090203716A1.

# Test target: human TSH receptor (Homo sapiens)
# Construct: expressed in transfected cells
# Method description: intracellular cAMP accumulation, agonism at TSHR stably expressed in HEK EM 293 cells
# Format: cell-based
# Experimental parameters: % of maximum response of TSHR to TSH (100 mU/ml); * estimated maximum response at 100 μM compound
Under this convention, t denotes % Max. Resp. @ TSHR in μM strictly below 10% and f denotes % Max. Resp. @ TSHR in μM at or above 10%.

{"Compound": "CSc1nc(-c2cccc(F)c2)c2c(N)c(C(=O)NC(C)(C)C)sc2n1", "Qualitative label": "t"}
{"Compound": "CSc1nc(-c2cccc(O)c2)c2c(N)c(C(=O)NC(C)(C)C)sc2n1", "Qualitative label": "f"}
{"Compound": "CCOC(=O)c1sc2nc(SC)nc(-c3cccc(OC)c3)c2c1N", "Qualitative label": "t"}
{"Compound": "COc1cccc(-c2nc(SC)nc3sc(C(=O)NCCO)c(N)c23)c1", "Qualitative label": "t"}
{"Compound": "COc1cccc(-c2nc(SC)nc3sc(C(=O)NC(C)(C)C)c(N)c23)c1 [Compound 3, reference compound]", "Qualitative label": "f"}

###

Measured % Max. Resp. @ LHCGR in μM by item
# Test target: human LHCG receptor (Homo sapiens, UniProt P22888)
# Construct: expressed in transfected cells
# Sequence (P22888 27-699): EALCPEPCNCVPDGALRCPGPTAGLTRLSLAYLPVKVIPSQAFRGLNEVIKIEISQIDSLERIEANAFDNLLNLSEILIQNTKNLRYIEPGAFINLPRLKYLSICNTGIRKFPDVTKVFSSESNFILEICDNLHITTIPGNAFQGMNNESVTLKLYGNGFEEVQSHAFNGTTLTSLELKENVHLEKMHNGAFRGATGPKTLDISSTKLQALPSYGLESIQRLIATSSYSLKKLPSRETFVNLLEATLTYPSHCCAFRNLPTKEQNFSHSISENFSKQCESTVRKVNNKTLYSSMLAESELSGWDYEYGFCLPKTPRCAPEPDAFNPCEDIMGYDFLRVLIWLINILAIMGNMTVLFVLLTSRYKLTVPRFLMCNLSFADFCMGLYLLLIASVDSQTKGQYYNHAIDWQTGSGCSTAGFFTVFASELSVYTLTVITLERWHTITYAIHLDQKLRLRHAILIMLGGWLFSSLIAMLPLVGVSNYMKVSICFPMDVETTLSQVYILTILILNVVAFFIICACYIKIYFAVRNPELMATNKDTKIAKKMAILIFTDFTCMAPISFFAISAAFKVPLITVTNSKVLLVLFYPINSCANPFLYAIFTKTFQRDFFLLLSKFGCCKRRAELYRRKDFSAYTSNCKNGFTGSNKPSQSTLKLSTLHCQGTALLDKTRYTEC
# Method description: intracellular cAMP accumulation, agonism at LHCGR stably expressed in HEK EM 293 cells
# Assay type: cell-based
# Experimental parameters: % of maximum response of LHCGR to LH (1000 ng/ml)

{"Compound": "COc1cccc(-c2nc(SC)nc3sc(C(=O)NC(C)(C)C)c(N)c23)c1 [Compound 3, reference compound]", "Unit abbrev": "%", "% Max. Resp. @ LHCGR in μM": 45.8}
{"Compound": "COc1cccc(-c2nc(SC)nc3sc(C(=O)NNC(=O)OC(C)(C)C)c(N)c23)c1", "Unit abbrev": "%", "% Max. Resp. @ LHCGR in μM": 2.4}
{"Compound": "COc1cccc(-c2nc(SC)nc3sc(C(=O)NC(C)(C)C)c(N)c23)c1OC", "Unit abbrev": "%", "% Max. Resp. @ LHCGR in μM": 50.1}
{"Compound": "COc1cccc(-c2nc(SC)nc3sc(C(=O)NC(C)(C)C)c(N)c23)c1F", "Unit abbrev": "%", "% Max. Resp. @ LHCGR in μM": 46.3}
{"Compound": "COc1cccc(-c2nc(SC)nc3sc(C(=O)NCC#N)c(N)c23)c1", "Unit abbrev": "%", "% Max. Resp. @ LHCGR in μM": 20.3}
{"Compound": "COc1cccc(-c2nc(SC)nc3sc(C(=O)OC(C)(C)C)c(N)c23)c1", "Unit abbrev": "%", "% Max. Resp. @ LHCGR in μM": 23.8}
{"Compound": "COc1cccc(-c2nc(SC)nc3sc(C(=O)NN)c(N)c23)c1", "Unit abbrev": "%", "% Max. Resp. @ LHCGR in μM": 8.5}
{"Compound": "COc1cccc(-c2nc(SC)nc3sc(C(=O)N(C)C(C)(C)C)c(N)c23)c1", "Unit abbrev": "%", "% Max. Resp. @ LHCGR in μM": 47.8}
{"Compound": "COc1cccc(-c2nc(SC)nc3sc(C(=O)NNC(C)(C)C)c(N)c23)c1", "Unit abbrev": "%", "% Max. Resp. @ LHCGR in μM": 6.0}
{"Compound": "COc1cccc(-c2nc(SC)nc3sc(C(=O)NCc4ccccc4)c(N)c23)c1", "Unit abbrev": "%", "% Max. Resp. @ LHCGR in μM": 7.8}
{"Compound": "CCNC(=O)c1sc2nc(SC)nc(-c3cccc(OC)c3)c2c1N", "Unit abbrev": "%", "% Max. Resp. @ LHCGR in μM": 26.9}
{"Compound": "CSc1nc(-c2cccc(O)c2)c2c(N)c(C(=O)NC(C)(C)C)sc2n1", "Unit abbrev": "%", "% Max. Resp. @ LHCGR in μM": 63.9}
{"Compound": "CCOC(=O)c1sc2nc(SC)nc(-c3cccc(OC)c3)c2c1N", "Unit abbrev": "%", "% Max. Resp. @ LHCGR in μM": 4.2}
{"Compound": "COc1cccc(-c2nc(SC)nc3sc(C(=O)NCCO)c(N)c23)c1", "Unit abbrev": "%", "% Max. Resp. @ LHCGR in μM": 20.5}
{"Compound": "COc1cccc(-c2nc(SC)nc3sc(C(=O)NCCc4ccccc4)c(N)c23)c1", "Unit abbrev": "%", "% Max. Resp. @ LHCGR in μM": 25.6}
{"Compound": "COc1cccc(-c2nc(SC)nc3sc(C(=O)NN(C)C)c(N)c23)c1", "Unit abbrev": "%", "% Max. Resp. @ LHCGR in μM": 11.0}

###

Measured EC50 by item
# Test target: human LHCG receptor (Homo sapiens, UniProt P22888)
# Construct: expressed in transfected cells
# Method description: intracellular cAMP accumulation, agonism at LHCGR stably expressed in HEK EM 293 cells
# Assay type: cell-based
# Experimental parameters: read-out: EC50 (LHCGR) in μM [95% C.I.]; cAMP, HEK EM 293 cells, dose response 0-100 μM compound
Metric: EC50 (µM)

{"Compound": "CSc1nc(-c2cccc(F)c2)c2c(N)c(C(=O)NC(C)(C)C)sc2n1 [Compound 18]", "Value reported": 1.2}
{"Compound": "CSc1nc(-c2cccc(O)c2)c2c(N)c(C(=O)NC(C)(C)C)sc2n1 [Compound 19]", "Value reported": 1.9}
{"Compound": "COc1cccc(-c2nc(SC)nc3sc(C(=O)NC(C)(C)C)c(N)c23)c1 [Compound 3, reference compound]", "Value reported": 0.3}
{"Compound": "COc1cccc(-c2nc(SC)nc3sc(C(=O)NC(C)(C)C)c(N)c23)c1OC [Compound 16]", "Value reported": 0.8}
{"Compound": "COc1cccc(-c2nc(SC)nc3sc(C(=O)N(C)C(C)(C)C)c(N)c23)c1 [Compound 7]", "Value reported": 0.8}
{"Compound": "COc1cccc(-c2nc(SC)nc3sc(C(=O)OC(C)(C)C)c(N)c23)c1 [Compound 5]", "Value reported": 1.1}
{"Compound": "COc1cccc(-c2nc(SC)nc3sc(C(=O)NC(C)(C)C)c(N)c23)c1F [Compound 17]", "Value reported": 1.5}

###

# Test target: human TSH receptor (Homo sapiens, UniProt P16473)
# Construct: expressed in transfected cells
# Sequence (P16473 21-764): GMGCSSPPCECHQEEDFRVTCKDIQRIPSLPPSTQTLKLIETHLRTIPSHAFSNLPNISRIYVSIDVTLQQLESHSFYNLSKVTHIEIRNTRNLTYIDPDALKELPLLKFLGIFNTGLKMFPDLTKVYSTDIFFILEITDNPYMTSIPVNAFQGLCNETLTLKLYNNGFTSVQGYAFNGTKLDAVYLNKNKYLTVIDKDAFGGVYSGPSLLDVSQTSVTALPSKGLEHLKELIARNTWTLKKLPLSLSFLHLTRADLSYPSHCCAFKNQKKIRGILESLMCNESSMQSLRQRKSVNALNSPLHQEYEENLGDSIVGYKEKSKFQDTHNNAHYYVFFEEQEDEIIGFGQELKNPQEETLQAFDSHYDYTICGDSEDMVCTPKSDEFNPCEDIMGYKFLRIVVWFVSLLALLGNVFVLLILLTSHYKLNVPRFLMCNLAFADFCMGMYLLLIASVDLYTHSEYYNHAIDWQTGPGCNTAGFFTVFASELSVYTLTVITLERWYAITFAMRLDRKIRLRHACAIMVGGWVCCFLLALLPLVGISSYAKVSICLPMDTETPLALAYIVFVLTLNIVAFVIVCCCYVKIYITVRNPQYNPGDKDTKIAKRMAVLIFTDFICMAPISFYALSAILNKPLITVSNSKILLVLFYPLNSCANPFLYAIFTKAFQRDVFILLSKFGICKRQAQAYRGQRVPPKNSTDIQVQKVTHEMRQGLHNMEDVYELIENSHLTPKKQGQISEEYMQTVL
# Method description: intracellular cAMP accumulation, agonism at TSHR stably expressed in HEK EM 293 cells
# Assay type: cell-based
# Experimental parameters: % of maximum response of TSHR to TSH (100 mU/ml); * estimated maximum response at 100 μM compound
Measured % Max. Resp. @ TSHR in μM by item

{"Compound": "COc1cccc(-c2nc(SC)nc3sc(C(=O)NC(C)(C)C)c(N)c23)c1OC [Compound 16]", "% Max. Resp. @ TSHR in μM": "3.0 ± 0.9%"}
{"Compound": "COc1cccc(-c2nc(SC)nc3sc(C(=O)N(C)C(C)(C)C)c(N)c23)c1 [Compound 7]", "% Max. Resp. @ TSHR in μM": "3.6 ± 1.9%"}
{"Compound": "COc1cccc(-c2nc(SC)nc3sc(C(=O)OC(C)(C)C)c(N)c23)c1 [Compound 5]", "% Max. Resp. @ TSHR in μM": ">30.3* %"}
{"Compound": "COc1cccc(-c2nc(SC)nc3sc(C(=O)NCCc4ccccc4)c(N)c23)c1 [Compound 15]", "% Max. Resp. @ TSHR in μM": "4.3 ± 0.4%"}
{"Compound": "COc1cccc(-c2nc(SC)nc3sc(C(=O)NCc4ccccc4)c(N)c23)c1 [Compound 14]", "% Max. Resp. @ TSHR in μM": "3.0 ± 1.2%"}
{"Compound": "COc1cccc(-c2nc(SC)nc3sc(C(=O)NN(C)C)c(N)c23)c1 [Compound 9]", "% Max. Resp. @ TSHR in μM": "4.0 ± 0.1%"}
{"Compound": "COc1cccc(-c2nc(SC)nc3sc(C(=O)NN)c(N)c23)c1 [Compound 8]", "% Max. Resp. @ TSHR in μM": "6.1 ± 0.8%"}
{"Compound": "COc1cccc(-c2nc(SC)nc3sc(C(=O)NNC(=O)OC(C)(C)C)c(N)c23)c1 [Compound 11]", "% Max. Resp. @ TSHR in μM": "1.9 ± 0.4%"}
{"Compound": "COc1cccc(-c2nc(SC)nc3sc(C(=O)NNC(C)(C)C)c(N)c23)c1 [Compound 10]", "% Max. Resp. @ TSHR in μM": "6.4 ± 0.6%"}
{"Compound": "COc1cccc(-c2nc(SC)nc3sc(C(=O)NC(C)(C)C)c(N)c23)c1F [Compound 17]", "% Max. Resp. @ TSHR in μM": ">24.0* %"}
{"Compound": "COc1cccc(-c2nc(SC)nc3sc(C(=O)NCC#N)c(N)c23)c1 [Compound 13]", "% Max. Resp. @ TSHR in μM": "3.6 ± 0.6%"}
{"Compound": "CCNC(=O)c1sc2nc(SC)nc(-c3cccc(OC)c3)c2c1N [Compound 6]", "% Max. Resp. @ TSHR in μM": "2.3 ± 0.4%"}
